Please go through the items and note down their GI50.
system: HL-60(TB) leukemia; assay: NCI tumour cell line growth inhibition, 48 h

Incoming: Entry under review: COc1cc(CCNC(=O)OC(C)(C)C)c2c(c1OC)SSSSS2 . Reported GI50?
Outgoing: 2920 nM

Incoming: Entry Nc1ncn([C@H]2C[C@H](OP(=O)(O)OC[C@H]3O[C@@H](n4cnc5c(=O)[nH]c(N)nc54)C[C@@H]3O)[C@@H](CO)O2)c(=O)n1 has what GI50?
Outgoing: > 100000 nM

Incoming: If you can, please state the reported GI50 value of COc1ccc(-c2[nH]nc(N)c2-c2cc(OC)c(OC)c(OC)c2)cc1 .
Outgoing: 23.6 nM

Incoming: Param item = Cn1c(=O)c(Oc2ccc(F)cc2F)cc2cnc(NC3CCOCC3)nc21 ; retrieve measured GI50.
Outgoing: > 25000 nM

Incoming: Using the record for CN(C)c1ccccc1[CH2][Ga]([Cl])[CH2]c1ccccc1N(C)C , report its GI50.
Outgoing: 2700 nM

Incoming: What value of GI50 has been reported for the following compound? COc1cc(/C=C/C(=O)c2c(-c3ccc(F)cc3)nc3sc(C)nn23)cc(OC)c1OC
Outgoing: 2440 nM

Incoming: Requested field: GI50. Item: Cc1ccc(OCCOCCOCCOCCOCCOc2ccc(C)n(O)c2=S)c(=S)n1O
Outgoing: 44.1 nM

Incoming: // lookup GI50 for C=CC(=O)N1CC[C@H](n2nc(C#Cc3cc(OC)cc(OC)c3)c3c(N)ncnc32)C1
Outgoing: 6230 nM

Incoming: Which GI50 value belongs to Cc1c2c(nn1-c1ccc(S(=O)(=O)NC(=S)NC(=O)c3ccccc3)cc1)-c1ccccc1CC2 ?
Outgoing: 3850 nM

Incoming: Param item = C/C=C(\C)C(=O)O[C@H]1C=CC(=O)O[C@H]1COC(=O)[C@H](C)O ; retrieve measured GI50.
Outgoing: 2340 nM

Incoming: Consider the compound shown here: O=C1NC(=NCCc2ccccn2)S/C1=C\c1ccc2ncccc2c1 What is its recorded GI50?
Outgoing: 7660 nM

====

For each record, write down the corresponding TGI.
system: SK-MEL-2 melanoma; test: NCI tumour cell line growth inhibition, 48 h

Incoming: Would you kindly share the measured TGI for COC(=O)C(c1ccc(OC)cc1)N1C(=O)[C@@H](NC(=O)c2ccccc2)[C@H]1[C@@H](C)O (some centres not stated) ?
Outgoing: > 100 µM

Incoming: Could you share which TGI value was measured for COc1ccc(/C=C/C(=O)c2sc(-c3cccnc3)nc2C)cc1 ?
Outgoing: > 100 µM

Incoming: Which TGI value belongs to O=[N+]([O-])C=C1c2ccccc2-c2ccccc21 ?
Outgoing: 39.9 µM

Incoming: What does the data say about its TGI? Entry: O=C1CS(=O)(=O)C(c2cccc(Oc3ccccc3)c2)N1C1CC1 (configuration not stated)
Outgoing: > 100 µM

Incoming: What does the data say about its TGI? Entry: COc1ccc2c(c1)CCCc1c-2nc2ccccc2c1N
Outgoing: 29.1 µM

Incoming: What TGI value was documented for this molecule, C=C1C(=O)O[C@H]2[C@H]1CC/C(CNC(=O)/C=C/c1ccccc1F)=C\CC[C@@]1(C)O[C@@H]21 ?
Outgoing: 3.52 µM

Incoming: Recorded TGI of C=CCOC(=O)Nc1cccn([C@H](CC(C)C)C(=O)NCCC(C)C)c1=O , please.
Outgoing: > 100 µM

Incoming: Item under review: CCOc1cccc(-c2cc(=O)c3cc4c(cc3[nH]2)OCO4)c1 . Reported TGI?
Outgoing: 24.9 µM

Incoming: Could you share which TGI value was measured for CC1(C)CCCCCCCCCC2CC2CCC(C)(C)C1=O (configuration not stated) ?
Outgoing: 34.5 µM

Incoming: Which TGI value belongs to Nc1cc(Cl)ccc1SSc1ccc(Cl)cc1N ?
Outgoing: 35 µM

Incoming: Data request, read-out TGI, for CCCCCCCCCCCCCCCCN(CC)CC
Outgoing: 8.9 µM

Incoming: // TGI lookup, key: CCOC(=O)C1SC(=Nc2ccc(Cl)cc2Cl)N=C1C (configuration not stated)
Outgoing: > 100 µM

Incoming: Looking for the measured TGI of COc1ccccc1NC(=O)CC(=O)N1N=C(c2ccccc2)C(N=Nc2ccc(Cl)cc2)C1=O (configuration not stated) , can you help?
Outgoing: > 100 µM

Incoming: Entry under review: C#CCOCn1cc(C)c(=O)[nH]c1=O . Reported TGI?
Outgoing: > 100 µM

Incoming: Consider the molecule CN(C)c1ccccc1[CH2][Ga]([Cl])[CH2]c1ccccc1N(C)C and give its measured TGI.
Outgoing: 2.87 µM

Incoming: Item CN1CCN(Cc2nc3c(s2)CCc2sccc2-3)CC1 has what recorded TGI?
Outgoing: > 100 µM

Incoming: I would be grateful if you could share the reported TGI for O=C1NC(=NCCc2ccccn2)S/C1=C\c1ccc2ncccc2c1 .
Outgoing: > 22.2 µM

Incoming: What value of measured TGI is listed for CC(C(=O)n1ccnc1)N1c2ccccc2Sc2ccccc21 (configuration not stated) ?
Outgoing: > 100 µM

Incoming: Tell me the measured TGI of COc1ccc2c(c1)C(c1cc(OC)c3c(c1)OCO3)C1=C(COC1=O)N2 (configuration not stated) , please.
Outgoing: > 44.8 µM

Incoming: What value of TGI has been recorded for this entry: CN1CC2=C(NC(=S)NC2c2ccccc2Cl)/C(=C/c2ccccc2Cl)C1 (configuration not stated)
Outgoing: > 100 µM

Incoming: Item Cc1[nH]nc2ncc(C(=O)N3CCC[C@H]3c3ccc(Cl)cc3)cc12 has what recorded TGI?
Outgoing: > 100 µM

Incoming: I am curious: what TGI value has been reported for O=c1[nH]c2c(c(=O)[nH]1)C(c1ccc([N+](=O)[O-])cc1)c1c([nH]c(=O)[nH]c1=O)O2 ?
Outgoing: > 100 µM
